Test system: COV-434
Experiment: Ovarian cancer cell line proliferation assay (CellTiter-Glo)
Assay type: cell-based
Conditions: COV434, 240 h, 7- or 10-day assay
Quantity kind: pIC50
Field pIC50 (float): negative decimal logarithm of the concentration in molar.

Lookup result for COC1CN([C@H]2CC[C@H]([C@@H](C)c3sc4c(c3C)C(=O)N(Cc3c(C)cc(C)[nH]c3=O)CCC4)CC2)C1 [Example 38] ; measured pIC50: 7.70

###

Biological target: WT 5-mer EZH2 (PRC2 complex) (Homo sapiens)
Sequence (Q15910 whole entry): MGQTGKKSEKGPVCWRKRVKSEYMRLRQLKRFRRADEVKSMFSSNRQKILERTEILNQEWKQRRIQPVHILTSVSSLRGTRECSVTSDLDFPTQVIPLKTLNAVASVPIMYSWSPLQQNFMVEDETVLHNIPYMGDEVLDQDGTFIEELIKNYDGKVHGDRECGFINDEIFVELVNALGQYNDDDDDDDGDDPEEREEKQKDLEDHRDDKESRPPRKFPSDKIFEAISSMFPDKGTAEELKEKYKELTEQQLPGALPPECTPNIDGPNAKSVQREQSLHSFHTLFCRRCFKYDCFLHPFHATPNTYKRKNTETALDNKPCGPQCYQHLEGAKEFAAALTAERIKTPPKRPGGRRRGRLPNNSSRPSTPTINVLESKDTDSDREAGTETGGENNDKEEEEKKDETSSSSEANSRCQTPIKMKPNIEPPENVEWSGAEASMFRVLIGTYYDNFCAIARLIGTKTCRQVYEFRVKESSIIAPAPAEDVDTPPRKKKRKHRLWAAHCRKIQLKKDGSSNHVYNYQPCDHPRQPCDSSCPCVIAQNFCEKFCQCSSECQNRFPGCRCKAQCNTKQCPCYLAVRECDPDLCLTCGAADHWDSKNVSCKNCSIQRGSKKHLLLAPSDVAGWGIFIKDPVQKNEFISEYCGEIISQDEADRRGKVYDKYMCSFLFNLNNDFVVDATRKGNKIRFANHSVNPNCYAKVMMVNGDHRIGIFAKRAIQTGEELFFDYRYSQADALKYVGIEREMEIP
Sequence (O75530 whole entry partner): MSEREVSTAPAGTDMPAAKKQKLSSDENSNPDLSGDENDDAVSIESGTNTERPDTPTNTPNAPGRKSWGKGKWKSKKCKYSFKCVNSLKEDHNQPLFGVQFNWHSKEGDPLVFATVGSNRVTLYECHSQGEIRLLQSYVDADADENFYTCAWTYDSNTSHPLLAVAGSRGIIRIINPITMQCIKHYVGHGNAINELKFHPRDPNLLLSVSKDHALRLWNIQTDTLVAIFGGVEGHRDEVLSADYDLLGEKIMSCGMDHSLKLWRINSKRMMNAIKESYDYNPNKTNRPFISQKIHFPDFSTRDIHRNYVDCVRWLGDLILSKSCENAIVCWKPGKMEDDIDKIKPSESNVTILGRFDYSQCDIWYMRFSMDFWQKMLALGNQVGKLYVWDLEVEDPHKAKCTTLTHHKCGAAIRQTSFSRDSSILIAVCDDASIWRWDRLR
Sequence (Q15022 whole entry partner): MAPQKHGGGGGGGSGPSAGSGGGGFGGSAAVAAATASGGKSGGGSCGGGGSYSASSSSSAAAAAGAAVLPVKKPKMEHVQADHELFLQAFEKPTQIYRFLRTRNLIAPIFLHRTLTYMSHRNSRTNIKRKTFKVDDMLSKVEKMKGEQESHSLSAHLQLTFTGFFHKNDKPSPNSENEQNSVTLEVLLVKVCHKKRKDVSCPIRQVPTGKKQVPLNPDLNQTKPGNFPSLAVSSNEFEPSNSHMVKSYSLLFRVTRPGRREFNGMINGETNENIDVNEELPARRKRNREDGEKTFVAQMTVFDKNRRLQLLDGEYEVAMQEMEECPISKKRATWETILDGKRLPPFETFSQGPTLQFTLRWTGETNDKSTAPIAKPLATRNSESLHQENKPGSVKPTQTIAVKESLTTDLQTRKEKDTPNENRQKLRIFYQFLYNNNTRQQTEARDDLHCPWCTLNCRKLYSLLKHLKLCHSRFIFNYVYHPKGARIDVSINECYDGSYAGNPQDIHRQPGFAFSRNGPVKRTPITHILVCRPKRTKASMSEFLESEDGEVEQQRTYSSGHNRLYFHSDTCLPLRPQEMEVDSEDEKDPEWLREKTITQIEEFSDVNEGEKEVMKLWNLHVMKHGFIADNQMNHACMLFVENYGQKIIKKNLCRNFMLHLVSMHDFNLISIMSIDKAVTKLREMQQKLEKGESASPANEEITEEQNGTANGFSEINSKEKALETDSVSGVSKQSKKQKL
Sequence (Q09028 whole entry partner): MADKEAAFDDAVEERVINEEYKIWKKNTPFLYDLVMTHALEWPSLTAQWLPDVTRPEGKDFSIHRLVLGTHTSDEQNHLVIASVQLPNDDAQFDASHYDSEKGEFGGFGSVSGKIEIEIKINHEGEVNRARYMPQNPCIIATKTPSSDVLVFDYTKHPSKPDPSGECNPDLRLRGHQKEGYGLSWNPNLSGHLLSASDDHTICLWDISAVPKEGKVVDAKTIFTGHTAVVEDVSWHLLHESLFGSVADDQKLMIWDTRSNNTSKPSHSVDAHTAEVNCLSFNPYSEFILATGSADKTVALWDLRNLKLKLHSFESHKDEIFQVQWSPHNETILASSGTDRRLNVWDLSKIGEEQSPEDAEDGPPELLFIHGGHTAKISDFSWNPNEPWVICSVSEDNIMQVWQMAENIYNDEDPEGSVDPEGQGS
Sequence (Q6ZN18 whole entry partner): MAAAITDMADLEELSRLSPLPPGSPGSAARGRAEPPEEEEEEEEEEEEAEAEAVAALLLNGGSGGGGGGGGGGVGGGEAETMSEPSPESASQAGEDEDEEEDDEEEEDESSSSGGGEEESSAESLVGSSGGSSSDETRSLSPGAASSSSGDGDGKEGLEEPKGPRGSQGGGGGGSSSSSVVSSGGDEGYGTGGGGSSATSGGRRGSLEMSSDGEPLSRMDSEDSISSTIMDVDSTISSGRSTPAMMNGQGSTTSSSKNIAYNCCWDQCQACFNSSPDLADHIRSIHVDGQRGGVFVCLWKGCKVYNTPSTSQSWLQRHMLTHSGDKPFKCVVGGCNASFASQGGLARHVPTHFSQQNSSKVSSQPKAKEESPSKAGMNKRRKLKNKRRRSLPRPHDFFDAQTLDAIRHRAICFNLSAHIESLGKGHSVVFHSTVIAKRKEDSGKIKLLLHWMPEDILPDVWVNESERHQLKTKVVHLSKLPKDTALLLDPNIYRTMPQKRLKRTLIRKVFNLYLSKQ
Test: EZH2 WT 384-well biochemical assay (SPA, 3H-SAM)
Quantity kind: pIC50
Field pIC50 (float): negative decimal logarithm of the concentration in molar.

Compound	Quantity kind	Observed value
CCN(c1sc2c(c1C)C(=O)N(Cc1c(C)cc(C)[nH]c1=O)CC2)[C@H]1CC[C@H](N2CC(OC)C2)CC1 [Example 22]	pIC50	8.48

Turning now to a further compound:
Lookup result for COC1CN([C@H]2CC[C@H]([C@@H](C)c3sc4c(c3C)C(=O)N(Cc3c(C)cc(C)[nH]c3=O)CC4)CC2)C1 [Example 1] ; measured pIC50: 8.69
